# assayedTarget: human 11β-HSD1 (Homo sapiens, UniProt P28845)
# Construct: 100 ug/ml human/mouse liver microsomes; from tissue; host or cells: human liver microsomes
# Sequence (P28845 whole entry): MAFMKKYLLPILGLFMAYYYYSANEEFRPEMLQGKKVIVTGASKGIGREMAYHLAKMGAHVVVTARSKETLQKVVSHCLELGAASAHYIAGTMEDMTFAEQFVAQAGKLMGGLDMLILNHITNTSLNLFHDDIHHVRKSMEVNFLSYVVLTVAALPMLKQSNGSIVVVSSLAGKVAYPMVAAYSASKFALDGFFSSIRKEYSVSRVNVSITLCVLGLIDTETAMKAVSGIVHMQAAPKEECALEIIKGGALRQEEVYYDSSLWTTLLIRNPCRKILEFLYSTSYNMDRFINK
# procedureText: Enzyme activity analysis on human 11β-HSD1 (HTRF cortisol, liver microsomes)
# Format: biochemical
# conditionLabel: first value of cell
Give IC50 for every item shown.
Please state the figure in µM; there is no need to write the unit.

IC50 for CC(C)(NS(=O)(=O)c1ccc([N+](=O)[O-])cc1)C(=O)NC1C2CC3CC(C2)CC1C3 (stereo not shown) is 1.33

IC50 for CCN(C(C)(C)C(=O)NC1C2CC3CC1CC(C(N)=O)(C3)C2)S(=O)(=O)c1ccccc1N (stereo not shown) is 0.011

IC50 for CC(C)(NS(=O)(=O)c1ccc(F)cc1Cl)C(=O)NC1C2CC3CC1CC(O)(C3)C2 (stereo not shown) is 0.072

IC50 for COc1cc([N+](=O)[O-])ccc1S(=O)(=O)NC(C)(C)C(=O)NC1C2CC3CC(C2)CC1C3 (stereo not shown) is 0.135

IC50 for NC(=O)C12CC3CC(C1)C(NC(=O)C1(NS(=O)(=O)c4ccccc4Cl)CCC1)C(C3)C2 (stereo not shown) is 0.021

IC50 for CC(C)(NS(=O)(=O)c1ccc(C(F)(F)F)cc1)C(=O)NC1C2CC3CC1CC(C(N)=O)(C3)C2 (stereo not shown) is 0.182

IC50 for CC(C)(NS(=O)(=O)c1ccc(Cl)cc1Cl)C(=O)NC1C2CC3CC1CC(O)(C3)C2 (stereo not shown) is 0.03

---

# assayedTarget: mouse 11β-HSD1 (Mus musculus, UniProt P50172)
# Construct: 100 ug/ml human/mouse liver microsomes; from tissue; host or cells: mouse liver microsomes
# Sequence (P50172 whole entry): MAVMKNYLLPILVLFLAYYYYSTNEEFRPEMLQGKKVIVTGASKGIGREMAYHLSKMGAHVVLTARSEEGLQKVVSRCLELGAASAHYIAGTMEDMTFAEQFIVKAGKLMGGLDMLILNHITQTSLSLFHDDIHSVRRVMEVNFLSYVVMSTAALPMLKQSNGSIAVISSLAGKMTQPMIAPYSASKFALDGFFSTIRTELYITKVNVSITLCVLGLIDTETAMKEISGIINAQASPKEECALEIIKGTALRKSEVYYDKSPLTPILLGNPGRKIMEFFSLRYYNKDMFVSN
# procedureText: Enzyme activity analysis on mouse 11β-HSD1 (HTRF cortisol, liver microsomes)
# Type: biochemical
# conditionLabel: second value of cell
readout: IC50 (µM)
Please state the figure in µM; there is no need to write the unit.

IC50 for CC(C)(NS(=O)(=O)c1ccc(F)cc1Cl)C(=O)NC1C2CC3CC(C2)CC1C3 (stereo not shown) is 0.186

IC50 for NC(=O)C12CC3CC(C1)C(NC(=O)C1(NS(=O)(=O)c4ccc([N+](=O)[O-])c(C(F)(F)F)c4)CCC1)C(C3)C2 (stereo not shown) is 0.505

IC50 for Cc1ccc(S(=O)(=O)NC2(C(=O)NC3C4CC5CC3CC(C(N)=O)(C5)C4)CCC2)cc1F (stereo not shown) is 0.062

---

# assayedTarget: mouse 11β-HSD1 (Mus musculus)
# Construct: 100 ug/ml human/mouse liver microsomes; from tissue; host or cells: mouse liver microsomes
# procedureText: Enzyme activity analysis on mouse 11β-HSD1 (HTRF cortisol, liver microsomes)
# Format: biochemical
# conditionLabel: second value of cell
# Procedure: After culturing at 37° C. for 2 hours, 5 μl of cryptate-labeled anti-cortisol antibody and 5 μl of d2-labeled cortisol were added thereto. After further culturing at room temperature for 2 hours, a homogeneous time-resolved fluorescence (HTRF, Cisbio) signal was measured. From each analysis, based on a standard curve calculated using cortisols of several known concentrations, an amount of produced cortisol was tested. […]
Response field label: string, one of MET (IC50 strictly below 0.1 µM) or NOT MET.

Challenge: Field: below-cutoff. Rule: recorded IC50 strictly less than 0.1 µM. Subject: O=C(NC1C2CC3CC(C2)CC1C3)C1(NS(=O)(=O)c2ccccc2C(F)(F)F)CCC1 (stereo not drawn)
Response given: NOT MET

Challenge: Field: below-cutoff. Rule: recorded IC50 strictly less than 0.1 µM. Subject: Cc1ccc(S(=O)(=O)NC2(C(=O)NC3C4CC5CC3CC(C(N)=O)(C5)C4)CCC2)cc1[N+](=O)[O-] (stereo not drawn)
Response given: NOT MET

Challenge: Field: below-cutoff. Rule: recorded IC50 strictly less than 0.1 µM. Subject: CC(C)(NS(=O)(=O)c1ccccc1Br)C(=O)NC1C2CC3CC1CC(C(N)=O)(C3)C2 (stereo not drawn)
Response given: MET

Challenge: Field: below-cutoff. Rule: recorded IC50 strictly less than 0.1 µM. Subject: CN(C(C)(C)C(=O)NC1C2CC3CC1CC(O)(C3)C2)S(=O)(=O)c1ccccc1[N+](=O)[O-] (stereo not drawn)
Response given: MET

Challenge: Field: below-cutoff. Rule: recorded IC50 strictly less than 0.1 µM. Subject: CN(C(C)(C)C(=O)NC1C2CC3CC1CC(C(N)=O)(C3)C2)S(=O)(=O)c1ccccc1F (stereo not drawn)
Response given: MET

Challenge: Field: below-cutoff. Rule: recorded IC50 strictly less than 0.1 µM. Subject: NC(=O)C12CC3CC(C1)C(NC(=O)C1(NS(=O)(=O)c4cccc5cccnc45)CCC1)C(C3)C2 (stereo not drawn)
Response given: MET

Challenge: Field: below-cutoff. Rule: recorded IC50 strictly less than 0.1 µM. Subject: CCN(CC)C(=O)C12CC3CC(C1)C(NC(=O)C(C)(C)NS(=O)(=O)c1ccccc1Cl)C(C3)C2 (stereo not drawn)
Response given: NOT MET

Challenge: Field: below-cutoff. Rule: recorded IC50 strictly less than 0.1 µM. Subject: CN(C(C)(C)C(=O)NC1C2CC3CC(C2)CC1C3)S(=O)(=O)c1ccccc1C(F)(F)F (stereo not drawn)
Response given: MET

Challenge: Field: below-cutoff. Rule: recorded IC50 strictly less than 0.1 µM. Subject: CC(C)(NS(=O)(=O)c1ccc(F)c(F)c1F)C(=O)NC1C2CC3CC1CC(C(N)=O)(C3)C2 (stereo not drawn)
Response given: NOT MET

Challenge: Field: below-cutoff. Rule: recorded IC50 strictly less than 0.1 µM. Subject: Cc1ccccc1S(=O)(=O)NC(C)(C)C(=O)NC1C2CC3CC1CC(C(N)=O)(C3)C2 (stereo not drawn)
Response given: MET

Challenge: Field: below-cutoff. Rule: recorded IC50 strictly less than 0.1 µM. Subject: NC(=O)C12CC3CC(C1)C(NC(=O)C1(NS(=O)(=O)c4cccc(Cl)c4Cl)CCCCC1)C(C3)C2 (stereo not drawn)
Response given: MET

Challenge: Field: below-cutoff. Rule: recorded IC50 strictly less than 0.1 µM. Subject: CN(C(C)(C)C(=O)NC1C2CC3CC1CC(C(N)=O)(C3)C2)S(=O)(=O)c1ccccc1Br (stereo not drawn)
Response given: NOT MET

Challenge: Field: below-cutoff. Rule: recorded IC50 strictly less than 0.1 µM. Subject: Cc1ccc(F)cc1S(=O)(=O)NC1(C(=O)NC2C3CC4CC2CC(C(N)=O)(C4)C3)CCC1 (stereo not drawn)
Response given: NOT MET

Challenge: Field: below-cutoff. Rule: recorded IC50 strictly less than 0.1 µM. Subject: CC(C)(NS(=O)(=O)c1ccc(Cl)cc1Cl)C(=O)NC1C2CC3CC1CC(O)(C3)C2 (stereo not drawn)
Response given: NOT MET

Challenge: Field: below-cutoff. Rule: recorded IC50 strictly less than 0.1 µM. Subject: Cc1ccccc1S(=O)(=O)NC1(C(=O)NC2C3CC4CC2CC(C(N)=O)(C4)C3)CCC1 (stereo not drawn)
Response given: NOT MET

---

# assayedTarget: mouse 11β-HSD1 (Mus musculus, UniProt P50172)
# Construct: 100 ug/ml human/mouse liver microsomes; from tissue; host or cells: mouse liver microsomes
# procedureText: Enzyme activity analysis on mouse 11β-HSD1 (HTRF cortisol, liver microsomes)
# Assay type: biochemical
# conditionLabel: second value of cell
readout: IC50 (µM)
Please state the figure in µM; there is no need to write the unit.

IC50 for COc1ccc(S(=O)(=O)NC(C)(C)C(=O)NC2C3CC4CC(C3)CC2C4)c(OC)c1 (stereo not shown) is 1.92

IC50 for CC(C)(NS(=O)(=O)c1ccccc1C#N)C(=O)NC1C2CC3CC1CC(C(N)=O)(C3)C2 (stereo not shown) is 0.405

IC50 for NC(=O)C12CC3CC(C1)C(NC(=O)C1(NS(=O)(=O)c4cccc(Cl)c4Cl)CCCC1)C(C3)C2 (stereo not shown) is 0.007

IC50 for NC(=O)C12CC3CC(C1)C(NC(=O)C1(NS(=O)(=O)c4ccccc4[N+](=O)[O-])CCCCC1)C(C3)C2 (stereo not shown) is 0.104

---

# assayedTarget: mouse 11β-HSD1 (Mus musculus)
# Construct: 100 ug/ml human/mouse liver microsomes; from tissue; host or cells: mouse liver microsomes
# procedureText: Enzyme activity analysis on mouse 11β-HSD1 (HTRF cortisol, liver microsomes)
# Type: biochemical
# conditionLabel: second value of cell
readout: IC50 (µM)
Please state the figure in µM; there is no need to write the unit.

IC50 for CC(C)(NS(=O)(=O)c1ccc([N+](=O)[O-])c(C(F)(F)F)c1)C(=O)NC1C2CC3CC1CC(C(N)=O)(C3)C2 (stereo not shown) is 0.215

IC50 for CC(C)(NS(=O)(=O)c1cccc(Cl)c1Cl)C(=O)NC1C2CC3CC1CC(C(N)=O)(C3)C2 (stereo not shown) is 0.007

IC50 for COc1cccc(F)c1S(=O)(=O)N(C)C(C)(C)C(=O)NC1C2CC3CC1CC(C(N)=O)(C3)C2 (stereo not shown) is 0.006

IC50 for NC(=O)C12CC3CC(C1)C(NC(=O)C1(NS(=O)(=O)c4ccccc4)CCCC1)C(C3)C2 (stereo not shown) is 0.12

IC50 for CN(C(C)(C)C(=O)NC1C2CC3CC1CC(C(N)=O)(C3)C2)S(=O)(=O)c1ccccc1C(F)(F)F (stereo not shown) is 0.012

IC50 for CC(C)(NS(=O)(=O)c1cccc(Cl)c1Cl)C(=O)NC1C2CC3CC1CC(O)(C3)C2 (stereo not shown) is 0.042

IC50 for Cc1c(Cl)cccc1S(=O)(=O)NC1(C(=O)NC2C3CC4CC2CC(C(N)=O)(C4)C3)CCCC1 (stereo not shown) is 0.016
